The entries below come with measured pEC50 values attached.
System: DENV-2 NGC strain
Assay: Plaque reduction assay (PRA) in Vero cells
Type: cell-based
Conditions: Dengue virus, DENV2, Vero, selected hits; 50% inhibition of viral plaque formation, PRA in Vero cells, DENV-2; read-out: Antiviral activity EC50
pEC50: −log10 of the molar value.
Observable: pEC50

[
  {
    "Mol": "Cc1ccc(C(=O)Nc2cc(-c3cccc(F)c3F)n[nH]2)c(=O)[nH]1",
    "Observable": "pEC50",
    "Result Modifier": "<",
    "Readout Value": 5.00
  },
  {
    "Mol": "O=C(CCc1ccccn1)Nc1ccc2[nH]nnc2c1",
    "Observable": "pEC50",
    "Result Modifier": "=",
    "Readout Value": 4.01
  },
  {
    "Mol": "N#Cc1cn[nH]c1NCc1ccc(OCc2ccccc2)cc1O",
    "Observable": "pEC50",
    "Result Modifier": "=",
    "Readout Value": 4.87
  },
  {
    "Mol": "O=C(NCc1nc2ccccc2[nH]1)c1ccc2[nH]nnc2c1",
    "Observable": "pEC50",
    "Result Modifier": "<",
    "Readout Value": 4.00
  },
  {
    "Mol": "NC(=O)COc1ccc(CNC(=O)Nc2ccc(Cl)cc2)cc1",
    "Observable": "pEC50",
    "Result Modifier": "=",
    "Readout Value": 4.46
  },
  {
    "Mol": "Cc1nc(NC(=O)c2ccc(C(N)=O)cc2)sc1SCC#N",
    "Observable": "pEC50",
    "Result Modifier": "=",
    "Readout Value": 4.01
  },
  {
    "Mol": "O=C(NCc1ncc(-c2ccccc2)[nH]1)Nc1ccncc1F",
    "Observable": "pEC50",
    "Result Modifier": "=",
    "Readout Value": 4.61
  },
  {
    "Mol": "Cc1ccc(NC(=S)NNC(=O)c2ccccc2O)cc1",
    "Observable": "pEC50",
    "Result Modifier": "=",
    "Readout Value": 5.71
  },
  {
    "Mol": "N=c1c2cnn(-c3ccccc3)c2ncn1NC(=S)Nc1ccccc1",
    "Observable": "pEC50",
    "Result Modifier": "<",
    "Readout Value": 4.00
  },
  {
    "Mol": "N#Cc1nc2c(-c3nc4ccccc4[nH]3)c(N)n(Cc3ccco3)c2nc1C#N",
    "Observable": "pEC50",
    "Result Modifier": "=",
    "Readout Value": 4.27
  }
]

###

Biological target: NS3-NS5 interaction (NS3 f.l. binding to coated 6His-NS5_270–900) (Dengue virus type 2, UniProt P14340)
Experiment: ELISA-based NS3-NS5 interaction assay
Design: species or system DENV-2
Conditions: selected hits; concentration that decreased the NS3-NS5 binding by 50% in ELISA; read-out: In vitro activity IC50
The entries below come with measured IC50 values attached.

[
  {
    "Mol": "O=C(NCc1nc2ccccc2[nH]1)c1ccc2[nH]nnc2c1",
    "IC50 [µM]": 85.9
  },
  {
    "Mol": "N#Cc1cn[nH]c1NCc1ccc(OCc2ccccc2)cc1O",
    "IC50 [µM]": 32
  },
  {
    "Mol": "NC(=O)COc1ccc(CNC(=O)Nc2ccc(Cl)cc2)cc1",
    "IC50 [µM]": 142
  },
  {
    "Mol": "Cc1nc(NC(=O)c2ccc(C(N)=O)cc2)sc1SCC#N",
    "IC50 [µM]": 51.4
  },
  {
    "Mol": "Cc1ccc(NC(=S)NNC(=O)c2ccccc2O)cc1",
    "IC50 [µM]": 15.6
  }
]
